Tested on: NCI-H2228
Test: relative viability (nuclei count vs DMSO), 5 days (fraction); higher = more cells survive
Conditions: first compound 0.4 µM
Please note: relative viability exactly at 0.8 is No. Only values below 0.8 get Yes.

Solved entries (count: 5):
- compound: "C[C@@H]1CN(CC(=O)Nc2ccc3c(c2)Cc2cccc(-c4cc(=O)cc(N5CCOCC5)o4)c2S3)C[C@H](C)O1 + CC(=O)c1c(C)c2cnc(Nc3ccc(N4CCNCC4)cn3)nc2n(C2CCCC2)c1=O [Palbociclib] (partner 0.5 µM)"
  qualitative label: "No"
- compound: "Clc1ccc(Nc2nnc(Cc3ccncc3)c3ccccc23)cc1 [Vatalanib] + CS(=O)(=O)CCNCc1ccc(-c2ccc3ncnc(Nc4ccc(OCc5cccc(F)c5)c(Cl)c4)c3c2)o1 [Lapatinib] (partner 2 µM)"
  qualitative label: "No"
- compound: "COc1cc(N2CCC(C(N)=O)CC2)ccc1Nc1nc(N)c(Cl)c(Nc2ccccc2S(=O)(=O)C(C)C)n1 [HG-5-88-01] + CS(=O)(=O)N1CCN(Cc2cc3nc(-c4cccc5[nH]ncc45)nc(N4CCOCC4)c3s2)CC1 [Pictilisib] (partner 1 µM)"
  qualitative label: "Yes"
- compound: "COc1cc(N2CCC(C(N)=O)CC2)ccc1Nc1nc(N)c(Cl)c(Nc2ccccc2S(=O)(=O)C(C)C)n1 [HG-5-88-01] + Cc1nc(Nc2ncc(C(=O)Nc3c(C)cccc3Cl)s2)cc(N2CCN(CCO)CC2)n1 [Dasatinib] (partner 0.075 µM)"
  qualitative label: "Yes"
- compound: "C[C@@H]1CN(CC(=O)Nc2ccc3c(c2)Cc2cccc(-c4cc(=O)cc(N5CCOCC5)o4)c2S3)C[C@H](C)O1 + Cc1nc(NC(=O)N2CCC[C@H]2C(N)=O)sc1-c1ccnc(C(C)(C)C(F)(F)F)c1 [Alpelisib] (partner 2 µM)"
  qualitative label: "Yes"

Turning to the following compound.
Query: Dear colleague, could you confirm whether relative viability of C[C@@H]1CN(CC(=O)Nc2ccc3c(c2)Cc2cccc(-c4cc(=O)cc(N5CCOCC5)o4)c2S3)C[C@H](C)O1 + CS(=O)(=O)N1CCN(Cc2cc3nc(-c4cccc5[nH]ncc45)nc(N4CCOCC4)c3s2)CC1 [Pictilisib] (partner 1 µM) falls below 0.8? Thanks.
Response: Yes

###

System: HCC-827
Assay: relative viability (nuclei count vs DMSO), 5 days (fraction); higher = more cells survive
Settings: first compound 0.04 µM
readout label: relative viability
Answer with a number only.

- compound: "C[C@@H]1CN(CC(=O)Nc2ccc3c(c2)Cc2cccc(-c4cc(=O)cc(N5CCOCC5)o4)c2S3)C[C@H](C)O1 + CC(C)C[C@H](NC(=O)[C@H](Cc1ccccc1)NC(=O)c1cnccn1)B(O)O [Bortezomib] (partner 0.002 µM)"
  recorded number: 1.01

Please turn your attention to the following entry.
Bench note, HCC-827: C[C@@H]1CN(CC(=O)Nc2ccc3c(c2)Cc2cccc(-c4cc(=O)cc(N5CCOCC5)o4)c2S3)C[C@H](C)O1 + O=C(c1cc(Cc2n[nH]c(=O)c3ccccc23)ccc1F)N1CCN(C(=O)C2CC2)CC1 [Olaparib] (partner 8 µM) , relative viability reads 0.674

###

Listing: relative viability of selected compounds
Tested on: LXF-289
Test: relative viability (nuclei count vs DMSO), 5 days (fraction); higher = more cells survive
Conditions: first compound 0.01 µM
Format: numeric value only, no unit, no commentary.

- compound: "CC(C)Oc1cc(Nc2nc(N[C@@H](C)c3ccc(F)cn3)ncc2Cl)n[nH]1 [AZ23] + N=C(N)NC(=N)NCCc1ccccc1 [Phenformin] (partner 250 µM)"
  relative viability: 0.591
- compound: "CC(C)Oc1cc(Nc2nc(N[C@@H](C)c3ccc(F)cn3)ncc2Cl)n[nH]1 [AZ23] + Cc1nc(Nc2ncc(C(=O)Nc3c(C)cccc3Cl)s2)cc(N2CCN(CCO)CC2)n1 [Dasatinib] (partner 0.075 µM)"
  relative viability: 0.205
- compound: "CC(C)Oc1cc(Nc2nc(N[C@@H](C)c3ccc(F)cn3)ncc2Cl)n[nH]1 [AZ23] + CS(=O)(=O)CCNCc1ccc(-c2ccc3ncnc(Nc4ccc(OCc5cccc(F)c5)c(Cl)c4)c3c2)o1 [Lapatinib] (partner 2 µM)"
  relative viability: 1.01

# compound CC(C)Oc1cc(Nc2nc(N[C@@H](C)c3ccc(F)cn3)ncc2Cl)n[nH]1 [AZ23] + C[C@@H](Oc1cc(-c2cnn(C3CCNCC3)c2)cnc1N)c1c(Cl)ccc(F)c1Cl [Crizotinib] (partner 1 µM) ; its relative viability = 0.862

// CC(C)Oc1cc(Nc2nc(N[C@@H](C)c3ccc(F)cn3)ncc2Cl)n[nH]1 [AZ23] + CC1(C)CCC(c2ccc(Cl)cc2)=C(CN2CCN(c3ccc(C(=O)NS(=O)(=O)c4ccc(N[C@H](CCN5CCOCC5)CSc5ccccc5)c(S(=O)(=O)C(F)(F)F)c4)cc3)CC2)C1 [Navitoclax] (partner 0.5 µM) : relative viability value = 1.08

###

System: HCC-15
Assay: relative viability (nuclei count vs DMSO), 5 days (fraction); higher = more cells survive
Details: first compound 4 µM
readout label: relative viability
Respond using a number only.

Some compounds with known relative viability results, for comparison:
- compound: "Clc1ccc(Nc2nnc(Cc3ccncc3)c3ccccc23)cc1 [Vatalanib] + CC(=O)c1c(C)c2cnc(Nc3ccc(N4CCNCC4)cn3)nc2n(C2CCCC2)c1=O [Palbociclib] (partner 0.5 µM)"
  experimental system: "HCC-15"
  relative viability: 0.668
- compound: "Clc1ccc(Nc2nnc(Cc3ccncc3)c3ccccc23)cc1 [Vatalanib] + Cc1nc(NC(=O)N2CCC[C@H]2C(N)=O)sc1-c1ccnc(C(C)(C)C(F)(F)F)c1 [Alpelisib] (partner 2 µM)"
  experimental system: "HCC-15"
  relative viability: 0.937
- compound: "Clc1ccc(Nc2nnc(Cc3ccncc3)c3ccccc23)cc1 [Vatalanib] + O=C(c1cc(Cc2n[nH]c(=O)c3ccccc23)ccc1F)N1CCN(C(=O)C2CC2)CC1 [Olaparib] (partner 8 µM)"
  experimental system: "HCC-15"
  relative viability: 0.696
- compound: "Clc1ccc(Nc2nnc(Cc3ccncc3)c3ccccc23)cc1 [Vatalanib] + C[C@@H](Oc1cc(-c2cnn(C3CCNCC3)c2)cnc1N)c1c(Cl)ccc(F)c1Cl [Crizotinib] (partner 1 µM)"
  experimental system: "HCC-15"
  relative viability: 0.841
- compound: "Clc1ccc(Nc2nnc(Cc3ccncc3)c3ccccc23)cc1 [Vatalanib] + N=C(N)NC(=N)NCCc1ccccc1 [Phenformin] (partner 250 µM)"
  experimental system: "HCC-15"
  relative viability: 0.457

Next:
The measured relative viability associated with Clc1ccc(Nc2nnc(Cc3ccncc3)c3ccccc23)cc1 [Vatalanib] + Nc1nc2[nH]cc(CCc3ccc(C(=O)N[C@@H](CCC(=O)O)C(=O)O)cc3)c2c(=O)[nH]1 [Pemetrexed] (partner 0.2 µM) reads 0.219

###

System: EPLC-272H
Test: relative viability (nuclei count vs DMSO), 5 days (fraction); higher = more cells survive
Conditions: first compound 0.8 µM
API: label(entry) gives MET if the entry's relative viability is strictly smaller than 0.6; on equality or larger values it gives NOT MET.

Below are worked cases with known answers.
- molecule: "CCCCCCCCCCCC1=C(O)C(=O)C=C(O)C1=O [Embelin] + Nc1ncn([C@H]2C[C@H](O)[C@@H](CO)O2)c(=O)n1 [Decitabine] (partner 2 µM)"
  qualitative label: "MET"
- molecule: "CCCCCCCCCCCC1=C(O)C(=O)C=C(O)C1=O [Embelin] + CS(=O)(=O)N1CCN(Cc2cc3nc(-c4cccc5[nH]ncc45)nc(N4CCOCC4)c3s2)CC1 [Pictilisib] (partner 1 µM)"
  qualitative label: "MET"
- molecule: "CCCCCCCCCCCC1=C(O)C(=O)C=C(O)C1=O [Embelin] + O=C(CCCCCCC(=O)Nc1ccccc1)NO [Vorinostat] (partner 1 µM)"
  qualitative label: "NOT MET"
- molecule: "CCCCCCCCCCCC1=C(O)C(=O)C=C(O)C1=O [Embelin] + Cc1cc(Nc2cc(N3CCN(C)CC3)nc(Sc3ccc(NC(=O)C4CC4)cc3)n2)n[nH]1 [Tozasertib] (partner 0.1 µM)"
  qualitative label: "MET"
- molecule: "CCCCCCCCCCCC1=C(O)C(=O)C=C(O)C1=O [Embelin] + O=C(c1cc(Cc2n[nH]c(=O)c3ccccc23)ccc1F)N1CCN(C(=O)C2CC2)CC1 [Olaparib] (partner 8 µM)"
  qualitative label: "NOT MET"

Query: Please check: relative viability for CCCCCCCCCCCC1=C(O)C(=O)C=C(O)C1=O [Embelin] + Cc1nc(NC(=O)N2CCC[C@H]2C(N)=O)sc1-c1ccnc(C(C)(C)C(F)(F)F)c1 [Alpelisib] (partner 2 µM) , strictly under 0.6 or not?
Response: NOT MET

Query: Hello, is relative viability of the following molecule strictly smaller than 0.6? CCCCCCCCCCCC1=C(O)C(=O)C=C(O)C1=O [Embelin] + Cc1nc(Nc2ncc(C(=O)Nc3c(C)cccc3Cl)s2)cc(N2CCN(CCO)CC2)n1 [Dasatinib] (partner 0.075 µM)
Response: MET

Query: Regarding CCCCCCCCCCCC1=C(O)C(=O)C=C(O)C1=O [Embelin] + C[C@]1(O)C[C@@H](c2nc(-c3ccc4ccc(-c5ccccc5)nc4c3)c3c(N)nccn32)C1 [Linsitinib] (partner 1 µM) , kindly confirm whether its relative viability is beneath 0.6.
Response: NOT MET
